Task for the reader: assign each of the following molecules its reported EC50.
test system: primary human T-cells; assay: Proliferation assay after 5 days (CellTiter-Glo, CD3 stimulation; PBS counter screen); assay type: cell-based; conditions: Homo sapiens, T-cell, 120 h, primary human T-cells, CD3 stimulation, CellTiter-Glo after 5 days; EC50 of fitted sigmoidal curve; read-out: Tcell Proliferation CD3 EC50
Quick reminder: number only, in nM, skip the unit.

// EC50 lookup, key: CC(O)(c1nc(-c2cc3c(cc2F)S(=O)(=O)C[C@H](N)C(=O)N3Cc2ccc(Cl)cc2)no1)C(F)(F)F (stereo partly shown)
244

Moving on to CN1CCCC(n2nnc(-c3cc4c(cc3F)S(=O)(=O)C[C@H](N)C(=O)N4Cc3ccc(Cl)cc3)n2)C1 (stereo partly shown)
567

Moving on to "Cc1cc2c(cc1-c1nnc(C(C)(C)C)o1)N(Cc1ccc(Cl)cc1)C(=O)[C@@H](N)CS2(=O)=O"
790

Moving on to "CC1CN(Cc2nnc(-c3cc4c(cc3F)SC[C@H](N)C(=O)N4Cc3ccc(Cl)cc3)o2)C1"
2230

----------
tested on: primary human T-cells; assay: Proliferation assay after 5 days (CellTiter-Glo, CD3 stimulation; PBS counter screen); type: cell-based; conditions: Homo sapiens, T-cell, 120 h, CD3 stimulation, 5 days; normalized to reference compound A1 as stimulator control = 100%, DMSO neutral control; read-out: Emax proliferation (% activation)
property.label: Emax (%)
Quick reminder: number only, in %, skip the unit.

// Emax lookup, key: "CC(C)(C)n1nnc(-c2cc3c(cc2F)S(=O)(=O)C[C@H](N)C(=O)N3Cc2ccc(OCC3CCOCC3)cc2)n1"
104

Moving on to "CCCc1noc(-c2cc3c(cc2F)S(=O)(=O)C[C@H](N)C(=O)N3Cc2ccc(Cl)cc2)n1"
80

Moving on to CS(=O)(=O)N1CC(c2nnc(-c3cc4c(cc3F)S(=O)(=O)C[C@H](N)C(=O)N4Cc3ccc(Cl)cc3)o2)CC(F)(F)C1 (stereo partly drawn)
82

----------
system: primary human T-cells
Flag rule - EC50 less than 800 nM flags t; the remaining entries get f.

Is EC50 strictly under 800 nM for the entry CS(=O)(=O)N1CCCC(n2nnc(-c3cc4c(cc3F)S(=O)(=O)C[C@H](N)C(=O)N4Cc3ccc(Cl)cc3)n2)C1 (some centres unmarked) ?
f

Moving on to "C[C@@H]1[C@H](N)C(=O)N(Cc2ccc(Cl)cc2)c2cc(-c3nnc(C(C)(C)C)o3)c(F)cc2S1(=O)=O"
f

Moving on to CC(O)(CNC(=O)c1nc(-c2cc3c(cc2F)S(=O)(=O)C[C@H](N)C(=O)N3Cc2ccc(Cl)cc2)no1)C(F)(F)F (some centres unmarked)
f

Moving on to CN1CC(c2nnc(-c3cc4c(cc3F)S(=O)(=O)C[C@H](N)C(=O)N4Cc3ccc(Cl)cc3)o2)CC(F)(F)C1 (some centres unmarked) [Example 153]
t

Moving on to "CS(=O)(=O)N1CC2CC(c3nnc(-c4cc5c(cc4F)S(=O)(=O)C[C@H](N)C(=O)N5Cc4ccc(Cl)cc4)o3)(C2)C1"
f

Moving on to N[C@H]1CS(=O)(=O)c2cc(F)c(-c3nnc(C4CCCCC4(F)F)o3)cc2N(Cc2ccc(OC(F)(F)F)cc2)C1=O (some centres unmarked)
t

Moving on to "CC1(C)COCCN1c1nnc(-c2cc3c(cc2F)S(=O)(=O)C[C@H](N)C(=O)N3Cc2ccc(Cl)cc2)o1"
t

Moving on to "N[C@H]1CS(=O)(=O)c2ccc(-c3nnc(NC4CC(F)(F)C4)o3)cc2N(Cc2ccc(Cl)cc2)C1=O"
t

Moving on to "N[C@H]1CS(=O)(=O)c2ccc(-c3nnc(N4CCOC(F)(F)C4)o3)cc2N(Cc2ccc(Cl)cc2)C1=O"
t

Moving on to CC(C#N)c1nnc(-c2ccc3c(c2)N(Cc2ccc(Cl)cc2)C(=O)[C@@H](N)CS3(=O)=O)o1 (some centres unmarked)
t

Moving on to CN1CCCC(n2nnc(-c3cc4c(cc3F)S(=O)(=O)C[C@H](N)C(=O)N4Cc3ccc(Cl)cc3)n2)C1 (some centres unmarked)
f

Moving on to CC(C)(C)c1nnc(-c2cc3c(cc2F)[S+]([O-])C[C@H](N)C(=O)N3Cc2ccc(OC(F)(F)F)cc2)o1 (some centres unmarked) [Example 62]
t

Moving on to "CCN1CCC(C)(c2nc(-c3cc4c(cc3F)S(=O)(=O)C[C@H](N)C(=O)N4Cc3ccc(Cl)cc3)no2)CC1"
t

Moving on to "CC(C)(C)n1nnc(-c2cc3c(cc2F)S(=O)(=O)C[C@H](N)C(=O)N3Cc2ccc(F)cc2)n1"
f

----------
Test system: primary human T-cells
Experiment: Proliferation assay after 5 days (CellTiter-Glo, CD3 stimulation; PBS counter screen)
Assay type: cell-based
Conditions: Homo sapiens, T-cell, 120 h, CD3 stimulation, 5 days; normalized to reference compound A1 as stimulator control = 100%, DMSO neutral control; read-out: Emax proliferation (% activation)
Description: Compounds are then added (see next section) to medium only plates. Cells are assessed for proliferation 5 days later by measuring […] using CellTiterGlo (Promega). After 5 days, for detection of ATP which is directly proportional to the number of cells present per well, the CellTiter-Glo® 2.0 Reagent is used. […] Luminescence is measured with PHERAstar FSX (interval time 0.5 sec, gain 3000, focal height 15 mm) and exported as CSV file for analysis in Genedata screener. […]
property.label: Emax (%)
Quick reminder: number only, in %, skip the unit.

// Emax lookup, key: "N[C@H]1CS(=O)(=O)c2cc(F)c(-c3nnc(N4CCOC5(CC5)C4)o3)cc2N(Cc2ccc(Cl)cc2)C1=O"
115

Moving on to "C[C@H](N)C(=O)N[C@H]1CS(=O)(=O)c2cc(F)c(-c3nnc(C(C)(C)C)o3)cc2N(Cc2ccc(Cl)cc2)C1=O"
101

Moving on to CC(=O)N[C@H]1CS(=O)(=O)c2cc(F)c(-c3nnn(C4CNCC(F)(F)C4)n3)cc2N(Cc2ccc(Cl)cc2)C1=O (stereo partly drawn)
64

----------
tested on: primary human T-cells; test: Proliferation assay after 5 days (CellTiter-Glo, CD3 stimulation; PBS counter screen); format: cell-based; conditions: Homo sapiens, T-cell, 120 h, primary human T-cells, CD3 stimulation, CellTiter-Glo after 5 days; EC50 of fitted sigmoidal curve; read-out: Tcell Proliferation CD3 EC50
property.label: EC50 (nM)
Quick reminder: number only, in nM, skip the unit.

// EC50 lookup, key: "COC(=O)N1CCC(c2nnc(-c3cc4c(cc3F)S(=O)(=O)C[C@H](N)C(=O)N4Cc3ccc(Cl)cc3)o2)CC1"
208

Moving on to "N[C@H]1CS(=O)(=O)c2cc(F)c(-c3nnc(-c4ccc(F)cn4)o3)cc2N(Cc2ccc(Cl)cc2)C1=O"
1050

Moving on to "N[C@H]1CS(=O)(=O)c2ccc(-c3nnc(C4(N)CCCC4)o3)cc2N(Cc2ccc(OC(F)(F)F)cc2)C1=O"
2590

Moving on to CC(CC(F)(F)F)Nc1nnc(-c2cc3c(cc2F)S(=O)(=O)C[C@H](N)C(=O)N3Cc2ccc(Cl)cc2)o1 (stereo partly shown)
243

----------
Task for the reader: assign each of the following compounds its reported EC50.
system: primary human T-cells
Quick reminder: number only, in µM, skip the unit.

// EC50 lookup, key: CCN1CCCC(Nc2nnc(-c3cc4c(cc3F)S(=O)(=O)C[C@H](N)C(=O)N4Cc3ccc(Cl)cc3)o2)C1 (stereo partly drawn)
4.88

Moving on to "Cc1nnc(-c2nc(-c3cc4c(cc3F)S(=O)(=O)C[C@H](N)C(=O)N4Cc3ccc(OC(F)(F)F)cc3)no2)o1"
0.239

Moving on to CC(Nc1nnc(-c2cc3c(cc2F)S(=O)(=O)C[C@H](N)C(=O)N3Cc2ccc(Cl)cc2)o1)C1CC1(F)F (single isomer, unassigned) [Example 495]
0.799

----------
tested on: primary human T-cells; test: Proliferation assay after 5 days (CellTiter-Glo, CD3 stimulation; PBS counter screen); assay type: cell-based; conditions: Homo sapiens, T-cell, 120 h, CD3 stimulation, 5 days; normalized to reference compound A1 as stimulator control = 100%, DMSO neutral control; read-out: Emax proliferation (% activation)
property.label: Emax (%)
Quick reminder: number only, in %, skip the unit.

Hi! What's the reported Emax for "CCc1cn(-c2cc3c(cc2F)S(=O)(=O)C[C@H](N)C(=O)N3Cc2ccc(Cl)cc2)nn1" on primary human T-cells?
68

Moving on to NC(c1nnc(-c2cc3c(cc2F)S(=O)(=O)C[C@H](N)C(=O)N3Cc2ccc(OC(F)(F)F)cc2)o1)C(F)(F)F (stereo partly shown)
126

Moving on to "CC(C)N(C)C(=O)c1nnc(-c2cc3c(cc2F)S(=O)(=O)C[C@H](N)C(=O)N3Cc2ccc(Cl)cc2)o1"
65

Moving on to "N[C@H]1CS(=O)(=O)c2cc(F)c(-c3nnc(CCCC(F)(F)F)o3)cc2N(Cc2ccc(Cl)cc2)C1=O"
154
